system: 7G8; assay: qHTS profiling for inhibitors of Plasmodium falciparum proliferation (AID 504749); also: nearly all actives have a fitted effect of over 60% in size; settings: P. falciparum in erythrocytes, SYBR Green DNA, 72 h; series mostly up to 12.8 µM
Records with an inconclusive call do not appear. Calls of active or inactive are those of the source. Calls follow the shape of the dose curve; as a rule, active = well fitted inhibition curve with a large enough effect; inconclusive = small, poorly fitted or top-dose-only effect; inactive = flat fitted curve, though single readings scatter.
Result category, one only: label 1 = active, label 0 = inactive

Request: Could you kindly confirm the outcome this assay logged for NC(=O)N[C@H]1NC(=O)NC1=O ?
Result: label 0

Request: Could you kindly confirm the outcome this assay logged for CC[C@@H]1OC(=O)[C@H](C)[C@H](O[C@@H]2C[C@](C)(OC)[C@H](O)[C@H](C)O2)[C@H](C)[C@H](O[C@@H]2O[C@@H](C)C[C@@H](N(C)C)[C@@H]2O)[C@](C)(O)C[C@H](C)C(=NOCOCCOC)[C@H](C)[C@H](O)[C@]1(C)O ?
Result: label 0

Request: Could you kindly confirm the outcome this assay logged for C=CCOc1ccccc1OC[C@H](O)CNC(C)C ?
Result: label 0

Request: Could you kindly confirm the outcome this assay logged for CCC(=O)O[C@@]1(C(=O)CCl)C(C)CC2C3CCC4=CC(=O)C=C[C@@]4(C)[C@]3(F)C(O)C[C@]21C (some centres undefined) ?
Result: label 1

Request: Could you kindly confirm the outcome this assay logged for COc1cc(C2c3cc4c(cc3C(O[C@@H]3OC5COC(c6cccs6)OC5C(O)C3O)C3COC(=O)C23)OCO4)cc(OC)c1O (some centres undefined) ?
Result: label 1

Request: Could you kindly confirm the outcome this assay logged for COc1ccc2c(c1)N(C[C@@H](C)CN(C)C)c1ccccc1S2 ?
Result: label 1

Request: Could you kindly confirm the outcome this assay logged for CCC(=O)[C@@]1(C)[C@H](C)C[C@@H]2[C@@H]3CCC4=CC(=O)C=C[C@@]4(C)[C@H]3[C@H](O)C[C@]21C ?
Result: label 1

Request: Could you kindly confirm the outcome this assay logged for CN[C@H]1[C@@H](O)[C@@H](NC)[C@@H]2O[C@@]3(O)C(=O)C[C@@H](C)O[C@H]3O[C@H]2[C@H]1O ?
Result: label 0

Request: Could you kindly confirm the outcome this assay logged for O=C(OC[C@@H](O)CO)c1ccccc1Nc1ccnc2cc(Cl)ccc12 ?
Result: label 1

----------
molecular target: Glucocorticoid receptor (Homo sapiens) (UniProt P04150); assay: GR-EFC Redistribution (AID 451); details: CHO-K1 GR-EFC translocation, beta-gal luminescence, 2 h
Sequence (P04150 whole entry, looked up): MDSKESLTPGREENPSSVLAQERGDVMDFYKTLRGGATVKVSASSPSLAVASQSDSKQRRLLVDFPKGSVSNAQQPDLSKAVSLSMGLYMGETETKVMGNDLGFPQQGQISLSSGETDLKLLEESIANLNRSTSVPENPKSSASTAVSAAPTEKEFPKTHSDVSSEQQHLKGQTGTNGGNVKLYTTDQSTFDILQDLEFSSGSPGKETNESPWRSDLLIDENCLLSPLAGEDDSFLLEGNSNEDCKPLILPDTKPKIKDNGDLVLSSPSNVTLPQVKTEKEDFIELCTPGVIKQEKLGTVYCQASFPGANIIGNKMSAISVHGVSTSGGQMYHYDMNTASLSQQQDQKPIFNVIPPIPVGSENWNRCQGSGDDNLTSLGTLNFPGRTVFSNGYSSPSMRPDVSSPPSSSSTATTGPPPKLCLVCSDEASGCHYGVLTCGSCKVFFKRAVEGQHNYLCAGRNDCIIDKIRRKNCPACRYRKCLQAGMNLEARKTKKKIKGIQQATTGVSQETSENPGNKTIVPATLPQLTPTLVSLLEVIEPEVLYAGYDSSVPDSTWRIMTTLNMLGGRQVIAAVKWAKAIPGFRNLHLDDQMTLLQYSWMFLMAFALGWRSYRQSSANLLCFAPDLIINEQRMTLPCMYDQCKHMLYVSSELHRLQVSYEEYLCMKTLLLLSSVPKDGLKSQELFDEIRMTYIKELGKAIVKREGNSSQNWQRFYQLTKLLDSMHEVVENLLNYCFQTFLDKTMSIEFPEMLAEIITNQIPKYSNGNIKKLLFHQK
The source made the active and inactive calls. Calls follow the shape of the full dose curve.
Result category, one only: active, inactive

Request: Could you kindly confirm the outcome this assay logged for C=C1c2c(Cl)ccc(O)c2C(O)=C2C(=O)[C@@]3(O)C(O)=C(C(N)=O)C(=O)[C@@H](N(C)C)[C@@H]3[C@@H](O)[C@H]12 ?
Result: inactive

Request: Could you kindly confirm the outcome this assay logged for CCOC(=O)Oc1c(OC)cc(C(=O)O[C@H]2C[C@H]3CN4CCc5c([nH]c6cc(OC)ccc56)[C@@H]4C[C@H]3[C@@H](C(=O)OC)[C@@H]2OC)cc1OC ?
Result: inactive

Request: Could you kindly confirm the outcome this assay logged for NCc1ccccc1CC(=O)N[C@@H]1C(=O)N2C(C(=O)O)=C(CSc3nnnn3CC(=O)O)CS[C@@H]12 ?
Result: inactive

Request: Could you kindly confirm the outcome this assay logged for Cn1c(-c2ccc3c(c2)OCO3)cc(=O)c2ccccc21 ?
Result: inactive

Request: Could you kindly confirm the outcome this assay logged for CC(C)(N=NC(C)(C)C(=N)N)C(=N)N ?
Result: inactive

Request: Could you kindly confirm the outcome this assay logged for C[C@@]12CCC(=O)C[C@@H]1CC(=O)[C@H]1[C@H]3CCC[C@]3(C)C(=O)C[C@@H]12 (tested in a mixture with another compound) ?
Result: inactive

Request: Could you kindly confirm the outcome this assay logged for CC[C@H]1NC(=O)c2cc(S(N)(=O)=O)c(Cl)cc2N1 ?
Result: inactive

Request: Could you kindly confirm the outcome this assay logged for COc1ccc2c(c1)N(C[C@@H](C)CN(C)C)c1ccccc1S2 ?
Result: inactive

Request: Could you kindly confirm the outcome this assay logged for O=C(O)CCCC[C@H]1SC[C@H]2NC(=O)N[C@@H]21 ?
Result: inactive

Request: Could you kindly confirm the outcome this assay logged for OCCN1CCN(CCC=C2c3ccccc3Sc3ccc(Cl)cc32)CC1 ?
Result: inactive

Request: Could you kindly confirm the outcome this assay logged for C=CCN1C(=CCO)[C@H]2C[C@H]3[C@@H]1CC[C@@]31c3ccccc3N3C=C4[C@@H]5N(/C=C/2[C@H]31)c1ccccc1[C@]51CC[C@H]2[C@H]1C[C@@H]4/C(=C/CO)N2CC=C ?
Result: inactive

Request: Could you kindly confirm the outcome this assay logged for Cc1cccc(CN2CCN([C@@H](c3ccccc3)c3ccc(Cl)cc3)CC2)c1 ?
Result: inactive

Request: Could you kindly confirm the outcome this assay logged for COc1ccc(C[C@@](C)(N)C(=O)O)cc1OC ?
Result: inactive

Request: Could you kindly confirm the outcome this assay logged for CN[C@]1(C)[C@H]2CC[C@@H](C2)C1(C)C ?
Result: inactive

Request: Could you kindly confirm the outcome this assay logged for CCOC(=O)[C@H](CCc1ccccc1)N[C@@H](C)C(=O)N1[C@H](C(=O)O)C[C@H]2CCC[C@@H]21 ?
Result: inactive

Request: Could you kindly confirm the outcome this assay logged for CC(=O)[C@@]1(O)CC[C@H]2[C@H]3C[C@@H](C)C4=CC(=O)C=C[C@]4(C)[C@@]3(F)[C@@H](O)C[C@]21C ?
Result: active

Request: Could you kindly confirm the outcome this assay logged for COc1cc2cc3c4cc(OC)c(OC)cc4cc[n+]3c(C)c2cc1OC ?
Result: inactive

Request: Could you kindly confirm the outcome this assay logged for Cc1onc(-c2c(Cl)cccc2Cl)c1C(=O)N[C@H]1C(=O)N2[C@H]1SC(C)(C)[C@H]2C(=O)O ?
Result: inactive

Request: Could you kindly confirm the outcome this assay logged for Cc1c(O)c(=O)n(-c2ccccc2)n1C ?
Result: inactive

Request: Could you kindly confirm the outcome this assay logged for COc1cc(OC)c2c(c1Cl)O[C@@]1(C2=O)[C@H](C)CC(=O)C[C@@H]1OC ?
Result: inactive

Request: Could you kindly confirm the outcome this assay logged for O=C(/C=C\c1ccc(O)c(O)c1)O[C@@H]1C[C@](O)(C(=O)O)C[C@@H](O)[C@@H]1O ?
Result: inactive

Request: Could you kindly confirm the outcome this assay logged for NC(=O)N[C@H]1NC(=O)NC1=O ?
Result: inactive

Request: Could you kindly confirm the outcome this assay logged for C[C@H]1[C@@H](O)[C@@H](C)\C=C/C=C\C=C/C=C\C=C/C=C\C=C/[C@@H](O[C@H]2O[C@@H](C)[C@@H](O)[C@@H](N)[C@@H]2O)C[C@@H]2O[C@](O)(C[C@@H](O)C[C@@H](O)[C@@H](O)CC[C@@H](O)C[C@@H](O)CC(=O)O[C@H]1C)C[C@@H](O)[C@H]2C(=O)O (stereo in doubt) ?
Result: inactive

Request: Could you kindly confirm the outcome this assay logged for CCN[C@@H]1CN(CCCOC)S(=O)(=O)c2sc(S(N)(=O)=O)cc21 ?
Result: inactive

Request: Could you kindly confirm the outcome this assay logged for C[C@@H]1O[C@H](O[C@@H]2\C=C/C=C\C=C/C=C\C[C@H](C)OC(=O)/C=C\[C@H]3O[C@@H]3C[C@H](O)C[C@]3(O)C[C@@H](O)[C@@H](C(=O)O)[C@H](C2)O3)[C@@H](O)[C@H](N)[C@@H]1O (stereo in doubt) ?
Result: inactive

Request: Could you kindly confirm the outcome this assay logged for CN1C(=O)C[C@H](c2ccccc2)C1=O ?
Result: inactive

Request: Could you kindly confirm the outcome this assay logged for CCC(=O)O[C@@]1(C(=O)CCl)[C@@H](C)C[C@@H]2[C@H]3CCC4=CC(=O)C=C[C@@]4(C)[C@]3(F)[C@@H](O)C[C@@]21C ?
Result: active

Request: Could you kindly confirm the outcome this assay logged for CC[C@@H]1OC(=O)[C@H](C)[C@H](O[C@@H]2C[C@](C)(OC)[C@H](O)[C@H](C)O2)[C@H](C)[C@H](O[C@@H]2O[C@@H](C)C[C@@H](N(C)C)[C@@H]2O)[C@](C)(O)C[C@H](C)C(=NOCOCCOC)[C@H](C)[C@H](O)[C@]1(C)O ?
Result: inactive

Request: Could you kindly confirm the outcome this assay logged for C[C@@H]1O[C@H](O[C@@H]2[C@@H](Oc3cc(O)c4c(c3)O[C@H](c3ccc(O)cc3)CC4=O)O[C@@H](CO)[C@@H](O)[C@H]2O)[C@@H](O)[C@H](O)[C@@H]1O ?
Result: inactive

Request: Could you kindly confirm the outcome this assay logged for CC1(C)[C@@H](OC(=O)CCC(=O)O)CC[C@@]2(C)[C@H]1CC[C@@]1(C)[C@H]2C(=O)C=C2[C@H]3C[C@](C)(C(=O)O)CC[C@]3(C)CC[C@@]21C ?
Result: inactive
